target: Human immunodeficiency virus type 1 reverse transcriptase (Human immunodeficiency virus 1); test: Inhibition of recombinant wild-type HIV-1 3B reverse transcriptase p66/p51 RNA-dependent DNA polymerase activity expressed in Escherichia coli JM109 assessed as reduction in dTTP incorporation using poly(rA)/oligo(dT)16 as template/primer after 40 mins by PicoGreen dye based spectrofluorometric analysis
Quick list: log10 IC50 per entry.
Log10 applied to IC50; unit prior to transform: µM.

Check out these entries, answers already filled in.
Cc1ccc(NC(=O)CSc2nc3ccccc3n2S(=O)(=O)c2cc(C)cc(C)c2)cc1    -1.04
Cc1cc(C)cc(S(=O)(=O)n2c(SCC(=O)Nc3ccccc3C)nc3ccccc32)c1    -0.65
Cc1cc(C)cc(S(=O)(=O)n2c(SCC(=O)Nc3ccccc3S(C)(=O)=O)nc3ccccc32)c1    1.78
COC(=O)c1ccc(NC(=O)CSc2nc3ccccc3n2S(=O)(=O)c2cc(C)cc(C)c2)cc1    -1.06
COC(=O)c1ccc(NC(=O)COc2nc3ccccc3n2S(=O)(=O)c2cc(C)cc(C)c2)c(Cl)c1    0.74

Give the value of log10 IC50 reported for the following: Cc1cc(C)cc(S(=O)(=O)n2c(SCC(=O)Nc3ccccc3C(=O)O)nc3ccccc32)c1 1.33

Return value of log10 IC50 for input Cc1cc(C)cc(S(=O)(=O)n2c(OCC(=O)Nc3ccccc3Cl)nc3ccccc32)c1 , no commentary. 1.67

Give me measured log10 IC50, please, for this compound: Cc1cc(C)cc(S(=O)(=O)n2c(OCC(=O)Nc3ccc(S(C)(=O)=O)cc3Cl)nc3ccccc32)c1 -0.12

Read the entry Cc1cc(C)cc(S(=O)(=O)n2c(OCC(=O)Nc3ccccc3Br)nc3ccccc32)c1 and write its reported log10 IC50. 1.20

----------
molecular target: Human immunodeficiency virus type 1 reverse transcriptase (Human immunodeficiency virus 1, UniProt Q72547); test: Inhibition of recombinant wild-type HIV-1 3B reverse transcriptase p66/p51 RNA-dependent DNA polymerase activity expressed in Escherichia coli JM109 assessed as reduction in dTTP incorporation using poly(rA)/oligo(dT)16 as template/primer after 40 mins by PicoGreen dye based spectrofluorometric analysis
pIC50: −log10 of the molar value.
Mark not fulfilled for pIC50 values under 7, and fulfilled for everything at or above.

Use the examples below as a reference point.
COC(=O)c1ccccc1NC(=O)CSc1nc2ccccc2n1S(=O)(=O)c1cc(C)cc(C)c1    not fulfilled
Cc1cc(C)cc(S(=O)(=O)n2c(SCC(=O)Nc3ccc(S(N)(=O)=O)cc3)nc3ccccc32)c1    fulfilled
Cc1cc(C)cc(S(=O)(=O)n2c(SCC(=O)Nc3ccc(S(C)(=O)=O)cc3)nc3ccccc32)c1    fulfilled
Cc1cc(C)cc(S(=O)(=O)n2c(SCC(=O)Nc3ccccc3S(N)(=O)=O)nc3ccccc32)c1    not fulfilled

# evaluate next
Would you say Cc1cc(C)cc(S(=O)(=O)n2c(OCC(=O)Nc3ccc(S(N)(=O)=O)cc3Cl)nc3ccccc32)c1 shows pIC50 at minimum 7? not fulfilled

----------
experiment: Cytotoxicity against human MT4 cells after 5 days by MTT assay; type: cell-based
Labelling: CC50 at 120 h reported below 20 µM becomes T; at or above becomes F.

Cc1cc(C)cc(S(=O)(=O)n2c(SCC(=O)Nc3ccc(S(N)(=O)=O)cc3)nc3ccccc32)c1    F
Cc1cc(C)cc(S(=O)(=O)n2c(SCC(=O)Nc3ccc(S(C)(=O)=O)cc3Cl)nc3ccccc32)c1    F
Cc1cc(C)cc(S(=O)(=O)n2c(SCC(=O)Nc3ccccc3C)nc3ccccc32)c1    T
Cc1cc(C)cc(S(=O)(=O)n2c(OCC(=O)Nc3ccccc3Br)nc3ccccc32)c1    F
Cc1cc(C)cc(S(=O)(=O)n2c(OCC(=O)Nc3ccc(S(N)(=O)=O)cc3Cl)nc3ccccc32)c1    F

Field: below-cutoff. Rule: recorded CC50 at 120 h strictly less than 20 µM. Subject: COC(=O)c1ccccc1NC(=O)CSc1nc2ccccc2n1S(=O)(=O)c1cc(C)cc(C)c1 T

Does Cc1cc(C)cc(S(=O)(=O)n2c(OCC(=O)Nc3ccccc3Cl)nc3ccccc32)c1 have CC50 at 120 h strictly under 20 µM? F

Report whether reported CC50 at 120 h is lower than 20 µM (strictly) for Cc1cc(C)cc(S(=O)(=O)n2c(SCC(=O)Nc3ccccc3C(=O)O)nc3ccccc32)c1 F

In plain terms, does Cc1cc(C)cc(S(=O)(=O)n2c(SCC(=O)Nc3ccc(C(=O)O)cc3)nc3ccccc32)c1 come in under 20 µM for CC50 at 120 h? F

Regarding COC(=O)c1ccc(NC(=O)CSc2nc3ccccc3n2S(=O)(=O)c2cc(C)cc(C)c2)cc1 , kindly confirm whether its CC50 at 120 h is beneath 20 µM. T

CC50 at 120 h strictly < 20 µM for this molecule? COC(=O)c1ccc(NC(=O)COc2nc3ccccc3n2S(=O)(=O)c2cc(C)cc(C)c2)c(Cl)c1 F

For Cc1cc(C)cc(S(=O)(=O)n2c(SCC(=O)Nc3ccccc3Br)nc3ccccc32)c1 , is the recorded CC50 at 120 h below the cut-off of 20 µM? F

Bench note: check whether Cc1cc(C)cc(S(=O)(=O)n2c(SCC(=O)Nc3ccc(S(C)(=O)=O)cc3)nc3ccccc32)c1 shows CC50 at 120 h below 20 µM T

Does this molecule meet the criterion CC50 at 120 h < 20 µM? Cc1cc(C)cc(S(=O)(=O)n2c(OCC(=O)Nc3ccc(S(C)(=O)=O)cc3Cl)nc3ccccc32)c1 F

Hi there! Is CC50 at 120 h for Cc1cc(C)cc(S(=O)(=O)n2c(SCC(=O)Nc3ccccc3S(N)(=O)=O)nc3ccccc32)c1 below 20 µM, do you know? F

----------
test: Selectivity index, ratio of CC50 for human MT4 cells to EC50 for HIV1 3B expressing wild type reverse transcriptase; format: toxicity; details: read-out: Ratio CC50/EC50
Binary call on selectivity ratio with cut-off 200: strictly below means 1.0, and equality or higher means 0.0.

Given the entry Cc1ccc(NC(=O)CSc2nc3ccccc3n2S(=O)(=O)c2cc(C)cc(C)c2)cc1 , would its reported selectivity ratio be below 200? 1.0

Confirm or reject: selectivity ratio of Cc1cc(C)cc(S(=O)(=O)n2c(SCC(=O)Nc3ccc(C(=O)O)cc3)nc3ccccc32)c1 lies strictly below 200 0.0

Report whether reported selectivity ratio is lower than 200 (strictly) for Cc1cc(C)cc(S(=O)(=O)n2c(OCC(=O)Nc3ccc(S(C)(=O)=O)cc3Cl)nc3ccccc32)c1 0.0

Hi there! Is selectivity ratio for COC(=O)c1ccccc1NC(=O)CSc1nc2ccccc2n1S(=O)(=O)c1cc(C)cc(C)c1 below 200, do you know? 1.0

----------
assay: Cytotoxicity against human MT4 cells after 5 days by MTT assay; assay type: cell-based
Quick list: CC50 at 120 h per entry.
# unit: µM | format: bare number

Solved entries:
Cc1cc(C)cc(S(=O)(=O)n2c(SCC(=O)Nc3ccccc3S(C)(=O)=O)nc3ccccc32)c1    9.31
Cc1ccc(NC(=O)CSc2nc3ccccc3n2S(=O)(=O)c2cc(C)cc(C)c2)cc1    2.97

We next turn to a different molecule, shown below.
Determine from records and report CC50 at 120 h for COC(=O)c1ccc(NC(=O)CSc2nc3ccccc3n2S(=O)(=O)c2cc(C)cc(C)c2)c(Cl)c1 145

----------
experiment: Selectivity index, ratio of CC50 for human MT4 cells to EC50 for HIV1 3B expressing wild type reverse transcriptase; assay type: toxicity; conditions: read-out: Ratio CC50/EC50
Known selectivity ratio of a selection of compounds
Please give the numeric answer without any surrounding text.

Cc1cc(C)cc(S(=O)(=O)n2c(SCC(=O)Nc3ccc(S(C)(=O)=O)cc3Cl)nc3ccccc32)c1    5540
Cc1cc(C)cc(S(=O)(=O)n2c(SCC(=O)Nc3ccccc3C(=O)O)nc3ccccc32)c1    4
Cc1cc(C)cc(S(=O)(=O)n2c(SCC(=O)Nc3ccc(S(N)(=O)=O)cc3)nc3ccccc32)c1    1290
Cc1cc(C)cc(S(=O)(=O)n2c(OCC(=O)Nc3ccccc3Cl)nc3ccccc32)c1    155
Cc1cc(C)cc(S(=O)(=O)n2c(SCC(=O)Nc3ccccc3S(N)(=O)=O)nc3ccccc32)c1    9

Using known records, supply selectivity ratio for COC(=O)c1ccc(NC(=O)CSc2nc3ccccc3n2S(=O)(=O)c2cc(C)cc(C)c2)cc1 196

Determine from records and report selectivity ratio for Cc1cc(C)cc(S(=O)(=O)n2c(SCC(=O)Nc3ccccc3C)nc3ccccc32)c1 27

Give reported selectivity ratio value for COC(=O)c1ccc(NC(=O)COc2nc3ccccc3n2S(=O)(=O)c2cc(C)cc(C)c2)c(Cl)c1 151

Name the recorded selectivity ratio of the compound listed here: Cc1cc(C)cc(S(=O)(=O)n2c(SCC(=O)Nc3ccc(S(C)(=O)=O)cc3)nc3ccccc32)c1 385
